Each item that follows carries a reported MIC Streptococcus pneumonia (PRSP) 884-NA.
system: Streptococcus pneumonia (PRSP) MMX884; assay: Broth microdilution susceptibility testing (CLSI); assay type: cell-based, Streptococcus pneumoniae
Endpoint Label: MIC Streptococcus pneumonia (PRSP) 884-NA (µg/mL)

>>> print(df.to_string())
                                   compound                                    tgt  output_unit  comparative_sign  experimental_result
0  CN(C)c1ccc(/C=C/c2cc(C(C)(C)C)[o+]c(C(C)(C)C)c2)cc1 [Compound 1493-0289]  Streptococcus pneumonia (PRSP) MMX884        µg/mL                 =                   16
1  Oc1ccc2ccccc2c1C(c1ccc(Cl)cc1)c1c(O)ccc2ccccc12 [Compound 363003]  Streptococcus pneumonia (PRSP) MMX884        µg/mL                 =                   16
2  CC[n+]1c(/C=C2C=C(/C=C/N(C)c3ccccc3)CC(C)(C)C/2)sc2ccccc21 [Compound 4090-1978]  Streptococcus pneumonia (PRSP) MMX884        µg/mL                 >                    8
3  Oc1ccccc1Oc1c(F)c(F)c(-c2c(F)c(F)c(Oc3ccccc3O)c(F)c2F)c(F)c1F [Compound 1611-0203]  Streptococcus pneumonia (PRSP) MMX884        µg/mL                 >                   16
4  CC[n+]1c(/C=C/C=C2C=C(/C=C/N(C)c3ccccc3)CC(C)(C)C/2)sc2ccccc21.[I-] [Compound 5107930]  Streptococcus pneumonia (PRSP) MMX884        µg/mL                 >                   64

###

tested on: Staphylococcus aureus ATCC 29213; assay: Antibacterial killing, 96-well turbidimetric (modified vCC) assay; type: cell-based; settings: Table S3; concentration at which 100% killing occurred, no bacterial regrowth; No = not active
Endpoint Label: active against S.aureus (IC100%)

>>> df
                                   molecule                               tgt                    endpoint_label  experimental_result
0  CCN1C(=CC(C)=Cc2sc3ccccc3[n+]2CC)Sc2ccccc21  Staphylococcus aureus ATCC 29213  active against S.aureus (IC100%)              15,6 µM
1  CCN1/C(=C\C=C\c2sc3c4ccccc4[se]c3[n+]2CC)Sc2c1[se]c1ccccc21  Staphylococcus aureus ATCC 29213  active against S.aureus (IC100%)               7,8 µM
2  COc1ccc(C=C[c+]2cc(-c3ccccc3)cc(-c3ccccc3)o2)cc1  Staphylococcus aureus ATCC 29213  active against S.aureus (IC100%)                   No
3  CCCCN(CC#Cc1ccc(C#CCN(CCCC)CCCC)cc1)CCCC.Cl.Cl  Staphylococcus aureus ATCC 29213  active against S.aureus (IC100%)                   No
4  Oc1ccccc1Oc1c(F)c(F)c(-c2c(F)c(F)c(Oc3ccccc3O)c(F)c2F)c(F)c1F  Staphylococcus aureus ATCC 29213  active against S.aureus (IC100%)               3,9 µM
5  Cc1ccc(CN2C(=O)c3ccccc3C2(O)Cc2ccccc2)cc1 (centres unmarked)  Staphylococcus aureus ATCC 29213  active against S.aureus (IC100%)                   No
6  CC(C)(C)c1csc(N2N=C(c3ccccc3)C(=NNc3ccccc3)C2=O)n1  Staphylococcus aureus ATCC 29213  active against S.aureus (IC100%)                   No
7  CC(C)CCCC(C)C1CCC2C3CC=C4CC(O)CCC4(C)C3CCC12C (centres unmarked)  Staphylococcus aureus ATCC 29213  active against S.aureus (IC100%)                   No

###

system: Jurkat; experiment: Cytotoxicity by MTT assay; format: cell-based, human
pIC50: −log10 of the molar value.
Endpoint Label: pIC50

>>> df
                              line_notation  comparative_sign  experimental_result
0  Oc1ccc2ccccc2c1C(c1ccc(Cl)cc1)c1c(O)ccc2ccccc12                 =                 4.90
1  CN(C)c1ccc(/C=C/c2cc(C(C)(C)C)[o+]c(C(C)(C)C)c2)cc1                 =                 4.38
2  CC[n+]1c(/C=C2C=C(/C=C/N(C)c3ccccc3)CC(C)(C)C/2)sc2ccccc21                 =                 4.06
3  CC[n+]1c(/C=C/C=C2C=C(/C=C/N(C)c3ccccc3)CC(C)(C)C/2)sc2ccccc21.[I-]                 <                 3.65

###

assay: Surface Plasmon Resonance binding to immobilized 3-Lipid II; conditions: Table S3; SPR, initial determination at 10 µM
Endpoint Label: Binding on Lipid II?

In [3]: df
Out[3]:
                                    compound  experimental_result
 0  CC[n+]1c(/C=C/C=C/N(C(C)=O)c2ccccc2)sc2cc(OC)ccc21                   No
 1  Clc1ccc(N2CCN(Cc3ccc(-c4ccccc4)cc3)CC2)cc1                   No
 2  O=C(O)C(=O)O.c1ccc(CCCN2CCC(N3CCN(c4ccccc4)CC3)CC2)cc1                   No
 3        Oc1ccc(O)c2c1C1c3ccccc3C2c2ccccc21                   No
 4                    OCC1c2ccccc2-c2ccccc21                   No
 5          CCC[N+](CC#CCO)(CC#Cc1ccccc1)CCC                   No
 6  CC[n+]1c(/C=C/C=C2\N(C)c3ccccc3C2(C)C)sc2ccccc21.[O-][Cl+3]([O-])([O-])[O-]                   No
 7          Cc1cc2c(cc1C)CSC(c1ccc(O)cc1)SC2                   No
 8  OC(c1cccc2ccccc12)c1c2ccccc2cc2ccccc12 (stereo not shown)                  Yes
 9             OCCSc1ccc(Cc2ccc(SCCO)cc2)cc1                   No
10  Cc1cc(C2(c3ccc(O)c(C)c3)C(=O)N(Cc3ccccc3)c3ccccc32)ccc1O                   No
11  CC[n+]1c(/C=C/C=C2C=C(/C=C/N(C)c3ccccc3)CC(C)(C)C/2)sc2ccccc21.[I-]                  Yes
12        OCc1ccc2c(c1)C1c3ccccc3C2c2ccccc21                   No
13  CC(CCc1ccc(O)cc1)NCCc1ccccc1 (stereo not shown) [Compound 5460400, 4-{3-[(2-phenylethyl)amino]butyl}phenol]                   No
14  CC(C)CCCC(C)C1CCC2C3CC=C4CC(O)CCC4(C)C3CCC12C (stereo not shown)                   No
15  Cc1cc2ccccc2n1C=CC1=[N+](C)c2ccccc2C1(C)C                   No
16  CCCCN(CC#Cc1ccc(C#CCN(CCCC)CCCC)cc1)CCCC.Cl.Cl                  Yes
17  CCN(CC)CCCN1CN(CCCN(CC)CC)CN(CCCN(CC)CC)C1 [Compound 000A-0859]                  Yes
18  COc1ccc(-c2cn(CC(=O)N(c3ccccc3)C(C)C)c3[n+]2CCC3)cc1                   No
19         CCCN1CCC(NCc2cccc(C(F)(F)F)c2)CC1                   No
20  Cc1ccc(CN2C(=O)c3ccccc3C2(O)Cc2ccccc2)cc1 (stereo not shown)                   No
21  CCN1C(=CC(C)=Cc2sc3ccccc3[n+]2CC)Sc2ccccc21                   No
22            OCC(CO)C1c2cccc3ccc4cccc1c4c23                   No
23  CN(C)c1ccc(/C=C/c2cc(C(C)(C)C)[o+]c(C(C)(C)C)c2)cc1                  Yes
24    Fc1ccccc1CN1CCC(N2CCN(c3ccccc3)CC2)CC1                   No
25  CN(C)c1ccc(C=C2C=C(c3ccccc3)OC(c3ccccc3)=C2)cc1                   No
26  FC(F)(F)c1cccc(N2CCN(Cc3ccc4c(c3)Cc3ccccc3-4)CC2)c1                   No
27  CCN1/C(=C/C=C/C=C/C2=CC(=C/c3sc4ccccc4[n+]3CC)/CC(C)(C)C2)Sc2ccccc21                   No
28    CN(C)c1ccc(C=CCN2CCN(Cc3ccccc3)CC2)cc1                  Yes
29  Fc1ccc(N2CCN(C3CCN(Cc4ccccc4)CC3)CC2)cc1                   No
30  CN(C)c1ccc(/C=C/c2cc(-c3ccccc3)[o+]c(-c3ccccc3)c2)cc1                   No
31  CN(C)c1ccc(C2C=C(c3ccccc3)Oc3ccccc32)cc1 (stereo not shown)                  Yes
32  CN(C)c1ccc(C(c2ccc(N(C)C)cc2)C(O)c2ccccc2)cc1 (stereo not shown)                   No
33  c1ccc(-c2nc(N(c3ccccc3)c3ccccc3)s[n+]2-c2ccccc2)cc1                  Yes
